From: patent US10308636B2

Test system: Male ICR mice
Test: Triglyceride (TG) elevation-suppressing action in plasma by lipid administration
Format: in vivo, mouse
Settings: 5 mg/kg oral, fasted ICR mice, lipid (Intralipos 20%, 10 mL/kg) 30 minutes after compound, plasma TG 2 hours after lipid, relative to solvent control
measurement kind: Plasma TG elevation suppressing ratio (5 mg/kg) (%)
State just the number; it will be interpreted in %.

Data request, read-out Plasma TG elevation suppressing ratio (5 mg/kg), for CC(C)(COc1ccc(-c2ccc(-c3ncc(CCOc4ccccc4)[nH]3)cn2)cc1)C(=O)O 66

Param item = COc1ccc(-c2n[nH]c(-c3ccc(-c4ccc(OCC(C)(C)C(=O)O)nc4)cc3)n2)cc1 ; retrieve measured Plasma TG elevation suppressing ratio (5 mg/kg). 73.0

Record request: Plasma TG elevation suppressing ratio (5 mg/kg) value, item Cc1cc(OCC(C)(C)C(=O)O)ncc1-c1ccc(-c2nc(C#N)c[nH]2)cc1 63

Can you look up the measured Plasma TG elevation suppressing ratio (5 mg/kg) of CCOCc1nc(-c2ccc(-c3ccc(OCC(C)(C)C(=O)O)cc3)nc2)[nH]c1Cl for me? 74

# context switch: different molecule, same Plasma TG elevation suppressing ratio (5 mg/kg)
Endpoint output: Plasma TG elevation suppressing ratio (5 mg/kg) of O=C(O)Cc1ccc(C2CCN(c3ccc(-c4nc(C(F)(F)F)c[nH]4)cn3)CC2)cc1 . Value? 66
